- Test system: RCH-ACV
- protocol: selective drug sensitivity score (sDSS, relative to normal bone marrow) (sDSS (score)); higher = more potent and effective on the cell line relative to normal bone marrow cells;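 further: ALL cell lines in 384-well plates, five doses spanning 10,000-fold, each plate scaled between vehicle and 100 µmol/L benzalkonium chloride controls, sDSS an adapted area-under-curve metric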
- test parameters: 72 h
readout label: selective drug sensitivity score

molecule: Nc1nc(Cl)nc2c1ncn2[C@@H]1O[C@H](CO)[C@@H](O)[C@@H]1F [Clofarabine] (top concentration 10000 nM)
observed measurement: 6.8
//
molecule: CCCCc1nc2cc(/C=C/C(=O)NO)ccc2n1CCN(CC)CC [Pracinostat] (top concentration 10000 nM)
observed measurement: 14.6

State recorded selective drug sensitivity score for all listed molecules.
1. CNC(=O)c1ccc2cc([C@@]3(O)CCn4cncc43)ccc2c1 [Orteronel] (top concentration 10000 nM)
2. COc1cc2ncnc(Nc3cccc(Cl)c3F)c2cc1OC(=O)N1CCN(C)C[C@H]1C [AZD3759] (top concentration 1000 nM)
3. CC1(C)CC[C@]2(NC(=O)C(C)(F)F)CC[C@]3(C)[C@H](C(=O)C=C4[C@@]5(C)C=C(C#N)C(=O)C(C)(C)[C@@H]5CC[C@]43C)[C@@H]2C1 [Omaveloxolone] (top concentration 10000 nM)
4. COCCNCc1ccc(-c2cc3nccc(Oc4ccc(NC(=S)NC(=O)Cc5ccc(F)cc5)cc4F)c3s2)nc1 [Glesatinib] (top concentration 2500 nM)

[0, -0.04, 6.28, 3.74]

====

- System: JURKAT
- protocol: selective drug sensitivity score (sDSS, relative to normal bone marrow) (sDSS (score)); higher = more potent and effective on the cell line relative to normal bone marrow cells
- test parameters: 72 h
What selective drug sensitivity score was measured for each of the following?
Answers are plain numbers.

Please review the following examples before continuing.
compound: Cn1nnc2c(C(N)=O)ncn2c1=O [Temozolomide] (top concentration 100000 nM)
selective drug sensitivity score: 2.36
--
compound: CC1(C)OCCn2c1nc1c(N3CCOCC3)nc(-c3cnc(N)nc3)nc12 [GDC-0084] (top concentration 10000 nM)
selective drug sensitivity score: 2.9
--
compound: Nc1ncnc2c1c(COc1cccc(Cl)c1)nn2C1CCOCC1 (top concentration 10000 nM)
selective drug sensitivity score: 0.06

Lab note: measured selective drug sensitivity score of Cc1ccc(F)c(NC(=O)Nc2ccc(-c3cccc4[nH]nc(N)c34)cc2)c1 [Linifanib] (top concentration 1000 nM) was -1.12

====

- Tested on: LC4-1
- protocol: selective drug sensitivity score (sDSS, relative to normal bone marrow) (sDSS (score)); higher = more potent and effective on the cell line relative to normal bone marrow cells
- test parameters: 72 h
Cut-off 3 on selective drug sensitivity score, inclusive. At or above means T; below means F.

Past entries and their recorded results:
molecule: CO[C@H]1C[C@@H]2CC[C@@H](C)[C@@](O)(O2)C(=O)C(=O)N2CCCC[C@H]2C(=O)O[C@H]([C@H](C)C[C@@H]2CC[C@@H](OC(=O)C(C)(CO)CO)[C@H](OC)C2)CC(=O)[C@H](C)/C=C(\C)[C@@H](O)[C@@H](OC)C(=O)[C@H](C)C[C@H](C)/C=C/C=C/C=C/1C [Temsirolimus] (top concentration 100 nM)
category: T
//
molecule: C=CCN(/C=C1/C(=O)O[C@H](COC)[C@@]2(C)C1=C(O)C(=O)C1=C2[C@H](OC(C)=O)C[C@]2(C)C(=O)CC[C@@H]12)CC=C [Sonolisib] (top concentration 10000 nM)
category: F

Reported selective drug sensitivity score at or above 3? COc1cc(Nc2ncc(F)c(Nc3ccc4c(n3)N(COP(=O)(O)O)C(=O)C(C)(C)O4)n2)cc(OC)c1OC [Fostamatinib] (top concentration 2500 nM)
F

Reported selective drug sensitivity score at or above 3? CC1=C2C[C@H]3[C@@H](CC[C@@H]4C[C@H](NS(C)(=O)=O)CC[C@@]43C)[C@@H]2CC[C@@]2(C1)O[C@@H]1C[C@H](C)CN[C@H]1[C@H]2C [Saridegib] (top concentration 10000 nM)
F

====

- System: TMD5
- protocol: selective drug sensitivity score (sDSS, relative to normal bone marrow) (sDSS (score)); higher = more potent and effective on the cell line relative to normal bone marrow cells
- test parameters: 72 h
Cut-off 2 on selective drug sensitivity score, inclusive. At or above means yes (1); below means no (0).

Past entries and their recorded results:
compound: C[C@]12CC[C@@H]3c4ccc(O)cc4C[C@@H](CCCCCCCCC[S+]([O-])CCCC(F)(F)C(F)(F)F)[C@H]3[C@@H]1CC[C@@H]2O (some centres not stated) [Fulvestrant] (top concentration 1000 nM)
assay target: TMD5
category: yes (1)
--
compound: N[C@@H]1CCCN(c2c(/C=C3\SC(=O)NC3=O)cccc2-c2ccccc2)C1 [AZD1208] (top concentration 10000 nM)
assay target: TMD5
category: yes (1)
--
compound: COC[C@H](NC(=O)c1cnc(C)s1)C(=O)N[C@@H](COC)C(=O)N[C@@H](Cc1ccccc1)C(=O)[C@@]1(C)CO1 [Oprozomib] (top concentration 2500 nM)
assay target: TMD5
category: no (0)
--
compound: Cc1c(Cn2c(C)nc3c(C(=O)O)cc(N4CCOCC4)cc32)cccc1C(F)(F)F (top concentration 10000 nM)
assay target: TMD5
category: no (0)

Reported selective drug sensitivity score at or above 2? CCc1c2c(nc3ccc(O)cc13)-c1cc3c(c(=O)n1C2)COC(=O)[C@]3(O)CC [SN-38] (top concentration 10000 nM)
yes (1)

Reported selective drug sensitivity score at or above 2? Cc1cc(F)c(C(=O)Nc2cccc(-c3nncn3C(C)C)n2)cc1-n1cnc(C2CC2)c1 [Selonsertib] (top concentration 1000 nM)
yes (1)

Reported selective drug sensitivity score at or above 2? Cn1cc(C[C@@H](N)C(=O)O)c2ccccc21 [1-methyl-D-tryptophan] (top concentration 5000 nM)
no (0)

Reported selective drug sensitivity score at or above 2? CC(C)(C)c1cnc(CSc2cnc(NC(=O)C3CCNCC3)s2)o1 [SNS-032] (top concentration 10000 nM)
no (0)

Reported selective drug sensitivity score at or above 2? Cc1cc(OCc2nnc(SC3CCCC3)n2-c2cccnc2)ccc1-c1ccc(S(C)(=O)=O)cc1 [NMS-873] (top concentration 10000 nM)
yes (1)

====

- System: LC4-1
- protocol: selective drug sensitivity score (sDSS, relative to normal bone marrow) (sDSS (score)); higher = more potent and effective on the cell line relative to normal bone marrow cells
- test parameters: 72 h
What selective drug sensitivity score was measured for each of the following?

Please review the following examples before continuing.
compound: Oc1ccc2c(c1)CC[C@H](c1ccccc1)[C@@H]2c1ccc(OCCN2CCCC2)cc1 [Lasofoxifene] (top concentration 1000 nM)
selective drug sensitivity score: -1.28

compound: CC1=NN(c2ccc(C(=O)O)cc2)C(=O)C1=Cc1ccc(-c2cc(C)c(C)cc2[N+](=O)[O-])o1 [C646] (top concentration 25000 nM)
selective drug sensitivity score: 1.84

Lab note: measured selective drug sensitivity score of CN1CC[C@H](c2c(O)cc(O)c3c(=O)cc(-c4ccccc4Cl)oc23)[C@H](O)C1 [Alvocidib] (top concentration 10000 nM) was -3.3

====

- System: JURKAT
- protocol: selective drug sensitivity score (sDSS, relative to normal bone marrow) (sDSS (score)); higher = more potent and effective on the cell line relative to normal bone marrow cells
- test parameters: 72 h
What selective drug sensitivity score was measured for each of the following?
Give bare numbers.

molecule: CN(CC(=O)N(Cc1ccc(C2CCCCC2)cc1)c1ccc(C(=O)O)cc1)S(=O)(=O)c1c(F)c(F)c(F)c(F)c1F [SH-4-54] (top concentration 25000 nM)
selective drug sensitivity score: -6.14

molecule: N#Cc1ccnc(N2C(=O)CC[C@H]2C(=O)N(c2cncc(F)c2)[C@H](C(=O)NC2CC(F)(F)C2)c2ccccc2Cl)c1 [Ivosidenib] (top concentration 10000 nM)
selective drug sensitivity score: 0.7

molecule: CO[C@H]1C[C@@H]2CC[C@@H](C)[C@@](O)(O2)C(=O)C(=O)N2CCCC[C@H]2C(=O)O[C@H]([C@H](C)C[C@@H]2CC[C@@H](OC(=O)C(C)(CO)CO)[C@H](OC)C2)CC(=O)[C@H](C)/C=C(\C)[C@@H](O)[C@@H](OC)C(=O)[C@H](C)C[C@H](C)/C=C/C=C/C=C/1C [Temsirolimus] (top concentration 100 nM)
selective drug sensitivity score: -0.54

molecule: Nc1nc(OCc2cc(Br)cs2)c2[nH]cnc2n1 [Lomeguatrib] (top concentration 10000 nM)
selective drug sensitivity score: 0

molecule: Cc1cc(-c2ncc(CC(=O)Nc3ccc(-c4cnccn4)cn3)cc2C)ccn1 [NVP-LGK974] (top concentration 10000 nM)
selective drug sensitivity score: 7.3

Kindly note: JURKAT, C/C(=C\c1csc(C)n1)[C@@H]1C[C@@H]2O[C@]2(C)CCC[C@H](C)[C@H](O)[C@@H](C)C(=O)C(C)(C)[C@@H](O)CC(=O)N1 [Ixabepilone] (top concentration 1000 nM) , selective drug sensitivity score value reported: 3.28
